This section presents sequences with their documented pull-down binding Z-score values.
Test system: TO-3-N3-2 (biotin conjugate)
Assay summary: pull-down binding Z-score (relative to library population); higher = stronger binding
Test settings: RNA library: Library-2
Enter a number only.

UUCUGUGGUUUGAAAGGAA [hsa-mir-1323]    0.281
CUGCUGCUGCUGCUGCUGCUGCUGCUGCUGCUGCUGCUGCUGCUGCUG [r(CUG)16]    -0.215
UAAUUAUAAAUUACCAGAUGAUUUUACAGGCUGCGUUAUAGCUUGGAAUUCUAACAAUCUUGAUUCUAAGGUUGGUGGUAAUUAUAAUUA    0.371
CCAAGCUUAGUUUGG [hsa-mir-1302-11_1302-10_1302-3_1302-2_1302-9]    -0.446
GGCUCAUAGACUUCCUUAAGGAUGUAAUGGAGUC [IAV_invivo_PB1_2_Motif_10+IAV_invivo_PB1_2_Motif_10]    -0.15

Endpoint output: pull-down binding Z-score of AUGUGUUGUGAUGGCACAGCGU [hsa-mir-592] . Value?
-0.582

Endpoint output: pull-down binding Z-score of AGUUGCUUACUCUAAUAACU [DMSMaPseq_invitro_SARS-CoV-2_Motif_421] . Value?
-0.314

Endpoint output: pull-down binding Z-score of UGGUUUUGCUAAAUUCCUAAAAACUA [DMSMaPseq_invitro_SARS-CoV-2_Motif_244] . Value?
-0.0765

Endpoint output: pull-down binding Z-score of AUGGUUAAUGUUCCACAGCCA [hsa-mir-5190] . Value?
0.157

---

Tested on: TO-N3-2 (biotin conjugate)
Assay summary: pull-down binding Z-score (relative to library population); higher = stronger binding
Test settings: RNA library: Library-2
Decision: pull-down binding Z-score >= 0.3 yields TRUE, all other cases yield FALSE.

UCUGUUGCUUGAAAGAAGAGA [hsa-mir-526a-1]    FALSE
AUUGUUCAACUUAGUGAAAUUAGUAUGGACAAU    FALSE

Does the reported pull-down binding Z-score for CUCCAGCACGGAG [IAV_invivo_PB2_1_Motif_21+IAV_invivo_PB2_1_Motif_21] fall at or above the 0.3 mark?
FALSE

Does the reported pull-down binding Z-score for GUUGACUGUUGAAUCUCAUGGCAAC [hsa-mir-21] fall at or above the 0.3 mark?
FALSE

Does the reported pull-down binding Z-score for AUGCUGACGAUGGUCAUUUUGUCAGCAU [IAV_invivo_M1_M2_7_Motif_18+IAV_invivo_M1_M2_7_Motif_18] fall at or above the 0.3 mark?
FALSE

Does the reported pull-down binding Z-score for CUGACCCGUUGUCAGACCUGGAAAAAGGGCCGGCUGUGGGCAGGGAGG [hsa-mir-4761] fall at or above the 0.3 mark?
TRUE

Does the reported pull-down binding Z-score for CAGGCAGUGGAGUUACUU [hsa-mir-600] fall at or above the 0.3 mark?
TRUE

Does the reported pull-down binding Z-score for ACAGUUUGAGGGUCUAUGAUACCACCCGGUACAGGAGAUAACUGU [hsa-let-7g] fall at or above the 0.3 mark?
TRUE

Does the reported pull-down binding Z-score for GACGGUGGGGGCCACGCUGACAGCCGC [hsa-mir-6804] fall at or above the 0.3 mark?
TRUE

---

This section presents sequences with their documented pull-down binding Z-score values.
System: TO-3-N3-2 (biotin conjugate)
Assay summary: pull-down binding Z-score (relative to library population); higher = stronger binding
Test settings: RNA library: Library-2
Enter a number only.

Example entries begin here.
AUAGAUUAUGUACCACUAAAGUCUGCUACGUGUAUAACACGUUGCAAUUUAGGUGGUGCUGUCUGU    -0.399
CUUGAUUUAAUGUCUAUACAAUUAAG [hsa-mir-124-3]    -0.0577
GCUACUGUCUGCACCUGUCACUAGCAGU [hsa-mir-130a]    -0.0477
GUUUGCCUGUUAAUGAAUUCAAAC [hsa-mir-3129]    0.248
AGCAUGCACUUAAUGUGGGUGUAUGU [hsa-mir-668]    -0.205

Attention now turns to another entry.
Param readout= pull-down binding Z-score; system= TO-3-N3-2 (biotin conjugate); entry= AGGGCAGGGGUGUGGCU [hsa-mir-4751] ; returns value.
2.67

---

This section presents sequences with their documented pull-down binding Z-score values.
Tested on: TO-3-N3 (biotin conjugate)
Assay summary: pull-down binding Z-score (relative to library population); higher = stronger binding
Test settings: RNA library: Library-2
Enter a number only.

CUCGUCUAUCUUCUGCAGGCUGCUUACGGUUUCGUCCGUGUUGCAGCCGAUCAUCAGCACAUCUAGGUUUCGUCCGGGUGUGACCGAAAGGUAAGAUGGAGAG    -0.0693
UAUUGAAAUCAAUA    -0.553
GCGCUGCCAGAAACUGGCCGCGC [mismatch-UC]    -0.648

Endpoint output: pull-down binding Z-score of CCAUUAUUGCUACUGUUCAGCAGGUGCUGCUGGUGGUGAUGG [hsa-mir-1260b] . Value?
0.0654

Endpoint output: pull-down binding Z-score of UUUUGCCAUUACUUUCAAUGGCAAAA [hsa-mir-548aa-2] . Value?
0.127

Endpoint output: pull-down binding Z-score of GGAAGAAGGCUGAGGGAGAUGCCUUCUUCC [hsa-mir-6512] . Value?
-0.455

Endpoint output: pull-down binding Z-score of ACCACCCAGGCCUUAUGGCUUCAUA [hsa-mir-7974] . Value?
-0.102

Endpoint output: pull-down binding Z-score of GGGUGGGUGGGUGGGUGGGUGGGU [G4_r(GGGU)6] . Value?
9.01

Endpoint output: pull-down binding Z-score of CUUCCUGAGCACGCUCAUGAUGAGCAAACUGAGCCUCUAAG [hsa-mir-3653] . Value?
0.463

Endpoint output: pull-down binding Z-score of AGCUGUUGAACUGGGAACCUGCU [hsa-mir-31] . Value?
-0.162

Endpoint output: pull-down binding Z-score of AAAUCCCGUUAAUAAGUAAGAGGAUUU [hsa-mir-2113] . Value?
0.503

---

Test system: TO-3-N3 (biotin conjugate)
Assay summary: pull-down binding Z-score (relative to library population); higher = stronger binding
Test settings: RNA library: Library-2
This section presents sequences with their documented pull-down binding Z-score values.
Enter a number only.

GAAAUGUGUGGAAGAUGGCAUUUC [hsa-mir-4482]    -0.346
GCCUUGAAGCCCCUUUUCUCUAUCUUUAUGCUUUAGUCUACUUCUUGCAGAGUAUAAACUUUGUAAGAAUAAUAAUGAGGC    0.275

Endpoint output: pull-down binding Z-score of CUUAGAUUUUUCCAUCUUUGUAUCUAG [hsa-mir-29b-2] . Value?
-0.805

Endpoint output: pull-down binding Z-score of GCUGCAGAUCUUUGUCUAAGCAGC [hsa-mir-4498] . Value?
-0.346

Endpoint output: pull-down binding Z-score of CAGGGAACUUUAAAACC [hsa-mir-4324] . Value?
0.41

Endpoint output: pull-down binding Z-score of GAACCCAGGGAGCCAGACUGCCUGGGUUC [hsa-mir-607] . Value?
1.05

Endpoint output: pull-down binding Z-score of CUGUCCCCUGCCACUGGGUGACC [hsa-mir-7114] . Value?
0.262

Endpoint output: pull-down binding Z-score of GCAGGUAGCUUUUUGAGAUCUACUGC [hsa-mir-106a] . Value?
-0.704

Endpoint output: pull-down binding Z-score of AACUGUGAUGUUGUAAUAGGAAUUGUCAACAACACAGUU . Value?
-0.296

Endpoint output: pull-down binding Z-score of CAAAUCGACUGUCCAAUGGAUUUG [hsa-mir-133a-2] . Value?
-0.529

Endpoint output: pull-down binding Z-score of UUUCUCUUGUCUAAAAGAAAAGAAA [hsa-mir-518f] . Value?
-0.761

---

System: TO-N3-2 (biotin conjugate)
Assay summary: pull-down binding Z-score (relative to library population); higher = stronger binding
Test settings: RNA library: Library-2
Value type: pull-down binding Z-score
Enter a number only.

GCAGACUUCAAAGUUUGC    -1.04
UACCUUUUGCUAUGGGUA    -1.26
CUGGCUGGUCCAGCCCCUCAGAAG [hsa-mir-6796]    1.47
GUGAACAUUGCAU [hsa-mir-4301]    -0.237

Endpoint output: pull-down binding Z-score of GGACAAUUCACCUAAUUUAGCAUGGCCUCUUAUUGUAACAGCUUUAAGGGCCAAUUCUGCUGUCAAAUUACAGAAUAAUGAGCUUAGUCC . Value?
-0.485

Endpoint output: pull-down binding Z-score of CACAUGAAGGUAAAACAUUUUAUGUUUUACCUAAUGAUG . Value?
-0.256

Endpoint output: pull-down binding Z-score of UCCAGUGUGGCUCGGAGGCUGGA [hsa-mir-139] . Value?
1.18

Endpoint output: pull-down binding Z-score of UACAUGUGUUGGUAGCGAUAAUGUUACUGACUUUAAUGCAAUUGCAACAUGUG [DMSMaPseq_invitro_SARS-CoV-2_Multi_49_ComplexLevel_1] . Value?
-0.909

Endpoint output: pull-down binding Z-score of GGCUCAUAGACUUCCUUAAGGAUGUAAUGGAGUC [IAV_invivo_PB1_2_Motif_10+IAV_invivo_PB1_2_Motif_10] . Value?
1.62

Endpoint output: pull-down binding Z-score of UAUAAUAUGAGAGUUAUA . Value?
-0.882
